Readings of IC50 for the listed compounds
- assay remarks: Inhibition of sheep brain tubulin polymerization by UV spectrophotometric analysis
- Parameters: species or system Ovis aries

sample smiles: C=CCNC(=O)/C1=C(\C(=O)OC)Cc2c([nH]c3ccccc23)[C@@](C(=O)OC)(c2cc3c(cc2OC)N(C)[C@H]2[C@@](O)(C(=O)OC)[C@H](OC(C)=O)[C@]4(CC)C=CCN5CC[C@]32[C@@H]54)C[C@@H]2C=C(CC)CN1C2
unit spec: µM
IC50: 3.7

sample smiles: CCC1=C[C@@H]2CN(C1)/C(C(=O)NCc1ccccc1)=C(/C(=O)OC)Cc1c([nH]c3ccccc13)[C@@](C(=O)OC)(c1cc3c(cc1OC)N(C)[C@H]1[C@@](O)(C(=O)OC)[C@H](OC(C)=O)[C@]4(CC)C=CCN5CC[C@]31[C@@H]54)C2
unit spec: µM
IC50: 10.4
